SYSTEM_TESTED: mu opioid receptor (MOR) (human) (UniProt P35372)
Sequence (P35372 whole entry): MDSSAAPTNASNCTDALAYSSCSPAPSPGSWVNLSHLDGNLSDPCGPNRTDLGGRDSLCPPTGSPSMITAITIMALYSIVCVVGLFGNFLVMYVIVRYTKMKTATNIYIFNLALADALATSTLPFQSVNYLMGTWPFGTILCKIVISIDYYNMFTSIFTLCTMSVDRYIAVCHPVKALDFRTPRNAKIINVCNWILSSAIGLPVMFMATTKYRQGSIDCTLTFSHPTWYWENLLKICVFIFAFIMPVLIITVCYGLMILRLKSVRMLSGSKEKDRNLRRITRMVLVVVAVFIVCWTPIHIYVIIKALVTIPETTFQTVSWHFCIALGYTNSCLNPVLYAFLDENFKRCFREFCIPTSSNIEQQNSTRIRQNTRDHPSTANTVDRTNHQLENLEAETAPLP
No end group written: not given here.
RECORDED_METRIC: Supplementary Table 4: EC50 of β-arrestin-1 recruitment to MOR, U87 cells

What the record says about YGAFMRRV-NH2 [adrenorphin-derived peptide YGAFMRRV] : Supplementary Table 4: EC50 of β-arrestin-1 recruitment to MOR, U87 cells is > 10 µM

Supplementary Table 4: EC50 of β-arrestin-1 recruitment to MOR, U87 cells reported for this binder YGGFARRV-NH2 [adrenorphin-derived peptide YGGFARRV] : > 10 µM

The value of Supplementary Table 4: EC50 of β-arrestin-1 recruitment to MOR, U87 cells measured for the binder YGSFMRRV-NH2 [adrenorphin-derived peptide YGSFMRRV] turned out to be > 10 µM
